molecular target: human FPR1 (Homo sapiens (Human)); test: FPR1 cyclic adenosine monophosphate (cAMP) assay; details: CHO cells overexpressing human FPR1; forskolin 10 µM; inhibition of cAMP production; read-out: hFPR1 cAMP EC50
readout.kind: EC50 (µM)

>  <compound>
COc1cc(F)c([C@@H]2CN(c3cn(C)nc3OC)C(=O)[C@H]2NC(=O)c2ccc(OC(F)F)cc2)c(F)c1

>  <test.system>
human FPR1 (Homo sapiens (Human))

>  <EC50 [µM]>
1.1

$$$$

I. COc1cc(F)c([C@@H]2CN(c3nc(N4CC(C)OCC4=O)ccc3F)C(=O)[C@H]2NC(=O)c2ccc(OC(F)(F)F)cc2)c(F)c1 (stereo partly drawn)
II. COc1cc(F)c([C@H]2[C@H](NC(=O)c3ccc(OC(F)F)cc3)C(=O)N(c3cccc(C4CCCN(CCO)C4)n3)[C@H]2C)c(F)c1 (stereo partly drawn) [Example 516]
Task item: Which numeric EC50 is bigger, that of I or that of II ? Use the label to indicate which entry you chose.
Reply: II
(II: 1.7 µM, I: 0.047 µM)

====

biological target: human FPR1 (Homo sapiens (Human)); assay: FPR1 cyclic adenosine monophosphate (cAMP) assay; type: cell-based; details: CHO cells overexpressing human FPR1; forskolin 10 µM; inhibition of cAMP production; read-out: hFPR1 cAMP EC50
readout.kind: EC50 (nM)

>  <molecule>
COc1cc(F)c([C@@H]2CN(c3nccc(N4CCC(C)(O)C4)c3C(F)(F)F)C(=O)[C@H]2NC(=O)c2ccc(Cl)cc2)c(F)c1 (stereo partly shown)

>  <EC50 / nM>
300

$$$$
>  <molecule>
COc1cc(F)c([C@@H]2CN(c3nccc(NC4CCOC4)c3C(F)(F)F)C(=O)[C@H]2NC(=O)c2ccc(Cl)cc2)c(F)c1 (stereo partly shown) [Example 125]

>  <EC50 / nM>
1100

$$$$
>  <molecule>
COCCn1ccc(C)c(N2C[C@@H](c3c(F)cc(OC)cc3F)[C@H](NC(=O)c3ccc(OC(F)F)cc3)C2=O)c1=O

>  <EC50 / nM>
3.2

$$$$
>  <molecule>
COc1ccc([C@@H]2CN(c3cccn(CCC(F)(F)F)c3=O)C(=O)[C@H]2NC(=O)c2ccc(OC(F)(F)F)cc2)c(F)c1

>  <EC50 / nM>
2.8

$$$$
>  <molecule>
CCN1CCC(N2C[C@@H](c3c(F)cc(OC)cc3F)[C@H](NC(=O)c3ccc(OC(F)(F)F)cc3)C2=O)C1=O (stereo partly shown)

>  <EC50 / nM>
17

$$$$

A. COc1cc(F)c([C@@H]2CN(c3cncn(C(CO)C(F)(F)F)c3=O)C(=O)[C@H]2NC(=O)c2ccc(Cl)cc2)c(F)c1 (stereo partly shown) [Example 518]
B. COc1ccc([C@@H]2CN(c3c(C)ccn(CCC(F)(F)F)c3=O)C(=O)[C@H]2NC(=O)c2ccc(OC(F)F)cc2)cc1
Task item: // select label with min value of measured EC50 from [ A , B ] Use the label to indicate which entry you chose.
Reply: B
(B: 1 nM, A: 3300 nM)

a. COc1cc(F)c([C@@H]2CN(c3c(C)ccn(CCS(C)(=O)=O)c3=O)C(=O)[C@H]2NC(=O)c2ccc(OC(F)(F)F)cc2)c(F)c1 [Example 576]
b. COc1cc(N2C[C@@H](c3c(F)cc(OC)cc3F)[C@H](NC(=O)c3ccc(OC(F)F)cc3)C2=O)nc(N2C[C@@H]3C[C@H]2CN3C)c1
Task item: Which numeric EC50 is bigger, that of a or that of b ? Use the label to indicate which entry you chose.
Reply: b
(b: 220 nM, a: 1.5 nM)

1. COc1cc(F)c([C@@H]2CN(c3cccn(CC(O)CO)c3=O)C(=O)[C@H]2NC(=O)c2ccc(Cl)cc2)c(F)c1 (stereo partly shown) [Example 677]
2. COc1cc(F)c([C@@H]2CN(c3cccnc3OC(F)F)C(=O)[C@H]2NC(=O)c2ccc(Cl)cc2)c(F)c1
Task item: // select label with min value of measured EC50 from [ 1 , 2 ] Use the label to indicate which entry you chose.
Reply: 2

A. COc1cc(F)c([C@@H]2CN(c3ncccc3F)C(=O)[C@H]2NC(=O)c2ccc(OC(F)F)cc2)c(F)c1
B. COc1cc(NCCO)nc(N2C[C@@H](c3c(F)cc(OC)cc3F)[C@H](NC(=O)c3ccc(Cl)cc3)C2=O)c1
C. COc1ccc([C@@H]2CN(c3cccn(CC(OC)C(F)(F)F)c3=O)C(=O)[C@H]2NC(=O)c2ccc(Cl)cc2)c(F)c1 (stereo partly shown)
D. COc1cc(F)c([C@@H]2CN(c3nccc(NCC(C)O)c3C(F)(F)F)C(=O)[C@H]2NC(=O)c2ccc(OC(F)F)cc2)c(F)c1 (stereo partly shown) [Example 129]
E. COCCn1cccc(N2C[C@@H](c3c(F)cc(OC)cc3F)[C@H](NC(=O)c3ccc(Cl)cc3)C2=O)c1=O
Task item: Place the items in sequence of falling EC50. Would you mind listing the labels in the order asked for?
Reply: A, B, D, E, C

1. COc1cc(F)c([C@@H]2CN(c3c(C)ccn(C4CCOCC4)c3=O)C(=O)[C@H]2NC(=O)c2ccc(OC(F)(F)F)cc2)c(F)c1
2. COc1cc(F)c([C@@H]2CN(c3ccc4n(c3=O)CCOC4=O)C(=O)[C@H]2NC(=O)c2ccc(OC(F)(F)F)cc2)c(F)c1
Task item: Which numeric EC50 is bigger, that of 1 or that of 2 ? Use the label to indicate which entry you chose.
Reply: 2

a. COc1cc(F)c([C@@H]2CN(c3cccn(CC(O)CO)c3=O)C(=O)[C@H]2NC(=O)c2ccc(OC(F)F)cc2)c(F)c1 (stereo partly shown) [Example 678]
b. COc1cc(F)c([C@@H]2CN(c3nc(N4C[C@@H]5C[C@H]4CN5C)ccc3OC)C(=O)[C@H]2NC(=O)c2ccc(Cl)cc2)c(F)c1
c. CCn1c2c(cc(N3C[C@@H](c4c(F)cc(OC)cc4F)[C@H](NC(=O)c4ccc(Cl)cc4)C3=O)c1=O)CCCC2
d. COc1ccc([C@@H]2CN(c3ccnn(CC(F)F)c3=O)C(=O)[C@H]2NC(=O)c2ccc(Cl)cc2)cc1
e. COCCn1ccc(C)c(N2C[C@@H](c3ccc(Cl)cc3)[C@H](NC(=O)c3ccc(OC(F)F)cc3)C2=O)c1=O
Task item: Place the items in sequence of falling EC50. Would you mind listing the labels in the order asked for?
Reply: b, a, d, c, e

====

biological target: human FPR1 (Homo sapiens (Human), UniProt P21462); assay: FPR1 cyclic adenosine monophosphate (cAMP) assay; conditions: CHO cells overexpressing human FPR1; forskolin 10 µM; inhibition of cAMP production; read-out: hFPR1 cAMP EC50
Sequence (P21462 whole entry): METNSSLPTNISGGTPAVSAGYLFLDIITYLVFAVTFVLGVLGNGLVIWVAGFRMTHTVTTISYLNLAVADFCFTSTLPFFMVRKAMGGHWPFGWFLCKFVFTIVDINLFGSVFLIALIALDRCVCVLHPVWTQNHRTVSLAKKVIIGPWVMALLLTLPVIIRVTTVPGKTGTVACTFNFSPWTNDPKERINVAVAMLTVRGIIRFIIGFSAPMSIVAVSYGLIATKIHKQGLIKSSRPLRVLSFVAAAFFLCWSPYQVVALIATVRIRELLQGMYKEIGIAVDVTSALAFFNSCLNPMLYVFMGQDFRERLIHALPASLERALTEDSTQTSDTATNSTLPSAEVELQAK
pEC50: −log10 of the molar value.
readout.kind: pEC50

Worked examples, 6 molecules total:
>  <molecule>
COc1cc(F)c([C@@H]2CN(c3nccc(NC4COC4)c3C(F)(F)F)C(=O)[C@H]2NC(=O)c2ccc(Cl)cc2)c(F)c1 [Example 327]

>  <readout.kind>
pEC50

>  <value.reported>
5.77

$$$$
>  <molecule>
COc1cc(F)c([C@@H]2CN(c3c(C)ccn(CC4CCO4)c3=O)C(=O)[C@H]2NC(=O)c2ccc(OC(F)F)cc2)c(F)c1 (stereo partly drawn) [Example 617]

>  <readout.kind>
pEC50

>  <value.reported>
7.74

$$$$
>  <molecule>
COc1cc(F)c([C@@H]2CN(c3cccn(CC(O)C(F)(F)F)c3=O)C(=O)[C@H]2NC(=O)c2ccc(OC(F)F)cc2)c(F)c1 (single isomer, unassigned) [Example 4]

>  <readout.kind>
pEC50

>  <value.reported>
6.54

$$$$
>  <molecule>
COc1cc(F)c([C@@H]2CN(c3c(C)ccn(C4CCNC4)c3=O)C(=O)[C@H]2NC(=O)c2ccc(OC(F)F)cc2)c(F)c1 (stereo partly drawn) [Example 601]

>  <readout.kind>
pEC50

>  <value.reported>
6.77

$$$$
>  <molecule>
COc1cc(F)c([C@H]2[C@H](NC(=O)c3ccc(OC(F)F)cc3)C(=O)N(c3cccc(OCCO)n3)[C@H]2C)c(F)c1 [Example 559]

>  <readout.kind>
pEC50

>  <value.reported>
6.35

$$$$
>  <molecule>
COc1cc(F)c([C@@H]2CN(c3c(C)ccn([C@H]4COC[C@@H]4O)c3=O)C(=O)[C@H]2NC(=O)c2ccc(OC(F)(F)F)cc2)c(F)c1 [Example 622]

>  <readout.kind>
pEC50

>  <value.reported>
8.66

$$$$

A. COCCn1ncc(C)c(N2C[C@@H](c3c(F)cc(OC)cc3F)[C@H](NC(=O)c3ccc(OC(F)F)cc3)C2=O)c1=O [Example 658]
B. COc1cc(F)c([C@@H]2CN(c3nccc(N4C[C@@H](C)N(C)[C@@H](C)C4)c3C(F)(F)F)C(=O)[C@H]2NC(=O)c2ccc(Cl)cc2)c(F)c1 [Example 181]
C. COc1cc(F)c([C@@H]2CN(c3cccn(CC(F)F)c3=O)C(=O)[C@H]2NC(=O)c2ccc(OC(F)(F)F)cc2)c(F)c1 [Example 148]
D. COc1ccc([C@@H]2CN(c3ccnn(CC(F)F)c3=O)C(=O)[C@H]2NC(=O)c2ccc(OC(F)(F)F)cc2)c(F)c1 [Example 696]
Task item: Place the items in sequence of falling pEC50. Would you mind listing the labels in the order asked for?
Reply: A, D, C, B

I. COc1cc(F)c([C@@H]2CN(c3c(C)ccn(CC(C)O)c3=O)C(=O)[C@H]2NC(=O)c2ccc(Cl)cc2)c(F)c1 (stereo partly drawn) [Example 581]
II. O=C(N[C@@H]1C(=O)N(c2cccn(CC(F)F)c2=O)C[C@H]1c1ccc(Cl)cc1)c1ccc(OC(F)(F)F)cc1 [Example 69]
Task item: // select label with min value of measured pEC50 from [ I , II ] Use the label to indicate which entry you chose.
Reply: I
(I: 8.00, II: 8.38)
